# Test system: NCI-H226 lung
# method-notes: NCI-60 one-dose screen, 48 h (100 = growth as untreated, 0 = no growth, -100 = all killed)
# recorded-conditions: 10 µM unless noted
The panel holds about 83,000 compounds, 20% with a hit somewhere; the sample as a whole holds those more often.
Returns satisfied if the recorded growth is greater than or equal to 60%, and not satisfied otherwise.

INSERT INTO results (compound, class) VALUES
  ('CCCCCCCC/C=C\CCCCCCCCOc1ccccc1CC(=O)NCC[N+]1(C)CCOCC1', 'satisfied'),
  ('COc1ccc(/C=C/C(=O)c2cc3c(N)c(C(=O)Nc4ccccc4Cl)sc3nc2C)cc1', 'not satisfied'),
  ('Cc1ccc2c(c1)C(C)Cc1c(ncnc1-n1cnc3cc(C)ccc31)N2C (stereo unspecified)', 'not satisfied'),
  ('CCOC(=O)CCCn1c(-c2ccccc2)cc(-c2ccccc2)c(C#N)c1=O', 'satisfied'),
  ('Cc1ccc(/C=C/c2c(C(=O)/C=C/c3ccccc3)c(C)nc3ccccc23)cc1', 'not satisfied'),
  ('Cc1ccc(-c2nc3nc(-c4ccc(Cl)cc4)nc(N4CCCNCC4)c3o2)cc1', 'satisfied'),
  ('COc1cc(/C=C/C(=O)c2ccc(NC(=O)CSc3nnc(-c4cc(-c5ccccc5)nc5ccccc45)n3-c3ccccc3)cc2)cc(OC)c1OC', 'satisfied'),
  ('O=C(c1cccc(Br)c1)N1CCN(c2ccnc3cc(Cl)ccc23)CC1', 'satisfied'),
  ('COCCn1cc(-c2csc(-c3cn(C)c4ccc(F)cc34)n2)c2cccnc21', 'satisfied'),
  ('COc1ccc(-c2[nH]c3ccccc3c2-c2ccc(OC)cc2)cc1', 'satisfied'),
  ('C=C(C)[C@@H]1CC[C@]2(C(=O)O)CC[C@]3(C)[C@H](CC[C@@H]4[C@@]5(C)CCC(N)C(C)(C)[C@@H]5CC[C@]43C)[C@@H]12 (stereo partly specified)', 'satisfied'),
  ('COc1ccc2nc3cc(Cl)ccc3c(NCCCNCCC(C)O)c2c1 (stereo unspecified)', 'not satisfied'),
  ('COc1ccc2c(c1)c(C(=O)c1nc(-c3cn(C)c4ccccc34)no1)cn2C', 'satisfied'),
  ('CS(=O)(=O)Nc1cc(-c2ccc3ncnc(Nc4ccc(F)c(Cl)c4)c3c2)cnc1Cl', 'not satisfied'),
  ('C#CCOCC1CN(C)C(=O)O1 (stereo unspecified)', 'satisfied'),
  ('Nc1[nH]nc(Nc2ccccc2)c1-c1nc2ccccc2s1', 'not satisfied'),
  ('COc1ccc(-c2cc(=O)c3c(O)cc(O)cc3o2)cc1', 'satisfied'),
  ('O=C(Nc1cc(C(F)(F)F)cc(C(F)(F)F)c1)c1cc(Cl)ccc1O', 'not satisfied'),
  ('COC(=O)c1nc(-c2ccccc2)oc1S(=O)(=O)N(C)CCO', 'satisfied'),
  ('COc1cc2cc(NCc3ccncc3)nc(C)c2cc1OC', 'satisfied'),
  ('COc1ccc2c(c1)oc1c(C)c3c(c(C)c12)C(=O)N(Nc1ccccc1)C3=O', 'satisfied');

====

# System: LOX IMVI melanoma
# method-notes: NCI-60 one-dose screen, 48 h
# recorded-conditions: 10 µM unless noted
The panel holds about 83,000 compounds, 20% with a hit somewhere; the sample as a whole holds those more often. The source made the active and inactive calls. The calls were made as follows: active = growth percent below 10; inactive = the rest.
Labels: label 1 (active), label 0 (inactive)

INSERT INTO results (smi, class) VALUES
  ('CCC(=O)Oc1cc(Cl)c(Cl)cc1Cl', 'label 0'),
  ('CCCCC1=C(Br)C(=O)c2nc(C)ccc2C1=O', 'label 0'),
  ('CN(C)C(=O)c1cc2cnc(Nc3ccc(-c4csc5c(=S)cc(N6CCOCC6)oc45)cc3)nc2n1C1CCCC1', 'label 1'),
  ('Cc1ccc(-c2nc(SCC(=O)c3ccc(C#N)cc3)[nH]c(=O)c2C#N)cc1', 'label 0'),
  ('C=C(CN1CC=CCC1)[C@@H]1CC[C@]2(COC(C)=O)CC[C@]3(C)[C@H](CC[C@@H]4[C@@]5(C)CC[C@H](O)C(C)(C)[C@@H]5CC[C@]43C)[C@@H]12', 'label 0');

====

# Tested on: KM12 colon
# method-notes: NCI-60 one-dose screen, 48 h (100 = growth as untreated, 0 = no growth, -100 = all killed)
# recorded-conditions: 10 µM unless noted
Compounds without any hit were thinned out: in the full panel of roughly 83,000, 20% have a hit.
result-type: growth (%)

INSERT INTO results (compound, unit_abbreviation, meas_value) VALUES
  ('COc1ccc(-c2ccc(-c3ccc(C(=N)N)cn3)s2)cc1Cl', '%', -45.3),
  ('Nc1nc2ccccc2c2c(=O)c3ccc(Cl)cc3sc12', '%', 87.5),
  ('CS(=O)(=O)Nc1cc(-c2ccc3ncnc(Nc4ccc(F)c(Cl)c4)c3c2)cnc1Cl', '%', 7.66),
  ('COc1ccc(-c2cc(-c3cc(OC)c(OC)c(OC)c3)c(C#N)c(=O)n2CCCCC(=O)O)cc1', '%', 94.6),
  ('C=C(CNCCO)[C@@H]1CC[C@]2(CO)CC[C@]3(C)[C@H](CC[C@@H]4[C@@]5(C)CCC(NCCc6ccc(O)cc6)C(C)(C)[C@@H]5CC[C@]43C)[C@@H]12 (some centres undefined)', '%', -81.2),
  ('N#C/C(=N\Nc1ccc(Cl)cc1)C(=O)Nc1cc(-c2ccccc2)nn1-c1ccccc1', '%', 32.4),
  ('COc1ccc(CCNC(=O)COc2cc3c(Nc4ccc(F)c(Cl)c4)ncnc3cc2OC)cc1OC', '%', 96.9),
  ('COc1ccc(/C=N\Nc2nc(SCC(C)C)nc(-c3ccc(OC)cc3)c2C#N)cc1', '%', 62.6),
  ('Cc1ccc(-c2nc3nc(-c4ccc(Br)cc4)nc(N4CCCNCC4)c3o2)cc1', '%', -90.9);

====

# Tested on: NCI-H522 lung
# method-notes: NCI-60 one-dose screen, 48 h (100 = growth as untreated, 0 = no growth, -100 = all killed)
# recorded-conditions: 10 µM unless noted
Compounds without any hit were thinned out: in the full panel of roughly 83,000, 20% have a hit.
result-type: growth (%)

INSERT INTO results (compound, meas_value) VALUES
  ('COc1ccc(/C(C)=C(\c2ccc(OCCN3CCOCC3)cc2)c2ccc(OC(=O)C3CCCCC3)cc2)cc1', 104),
  ('Cc1ccccc1SSc1ccccc1C', 60.8),
  ('O=C1N=c2ccccc2=C1c1sc(=S)n(C2CC(=O)N(c3ccc(Cl)cc3)C2=O)c1O (configuration not stated)', 97.1),
  ('O=C1CCCCN1CCCCC#Cc1cccc(C#Cc2cccnc2)c1', 75.7),
  ('CCOC(=O)CC1CSC(c2cccc(Cl)c2)=N1 (configuration not stated)', 101),
  ('CCOC(=O)c1nc2c3ccccc3cnn2c1C(=O)c1ccc(OC)cc1', 95.2),
  ('CCOC(=O)c1cnn(CC(O)CC)c1NC(=O)NCc1ccccc1C(F)(F)F (configuration not stated)', 70.3);

====

# System: CAKI-1 renal
# method-notes: NCI-60 one-dose screen, 48 h
# recorded-conditions: 10 µM unless noted
The panel holds about 83,000 compounds, 20% with a hit somewhere; the sample as a whole holds those more often. Active and inactive are the calls of the source. The calls were made as follows: active = growth percent below 10; inactive = the rest.
Labels: true (1) for active, false (0) for inactive

INSERT INTO results (compound, target_desc, class) VALUES
  ('CCOC(=O)C(=CCC(C)C)C(=O)OCC', 'CAKI-1 renal', 'false (0)'),
  ('O=C(Nc1ncc(Cc2cccc(C(F)(F)F)c2)s1)c1ccc(-n2cnnn2)cc1', 'CAKI-1 renal', 'false (0)'),
  ('COc1ccc(C/C(C)=C(/c2ccc(OCCN3CCCCCC3)cc2)c2ccc(OC(=O)c3ccccc3)cc2)cc1', 'CAKI-1 renal', 'false (0)'),
  ('CC[C@@H]1NC(=O)[C@H]([C@H](O)[C@H](C)C/C=C/c2ccc(CN3C(=O)C(C)=C(C)C3=O)cc2)N(C)C(=O)[C@H](C(C)C)N(C)C(=O)[C@H](CC(C)C)N(C)C(=O)[C@H](CC(C)C)N(C)C(=O)[C@@H](C)NC(=O)[C@H](C)NC(=O)[C@H](CC(C)C)N(C)C(=O)[C@H](C(C)C)NC(=O)[C@H](CC(C)C)N(C)C(=O)CN(C)C1=O', 'CAKI-1 renal', 'false (0)'),
  ('COc1cc(C=O)ccc1Oc1ccc([N+](=O)[O-])cc1[N+](=O)[O-]', 'CAKI-1 renal', 'false (0)'),
  ('COc1ccc(C(=O)N/N=C/c2ccc(O)cc2O)cc1Nc1ccnc(C(F)(F)F)c1', 'CAKI-1 renal', 'false (0)'),
  ('COc1ccc(-c2ccccc2)cc1-c1c(Nc2cc(Cl)cc(Cl)c2O)c(=O)c1=O', 'CAKI-1 renal', 'true (1)'),
  ('COc1cc(-c2nc3occn3c2-c2ccnc(NCCCNS(=O)(=O)c3ccc(O)cc3)n2)ccc1F', 'CAKI-1 renal', 'false (0)'),
  ('CCN1CCN(CC(=O)Nc2nc3ccc(NCc4ccc(C)cc4)cc3s2)CC1', 'CAKI-1 renal', 'false (0)'),
  ('CCOC(=O)n1cc(-c2nonc2-c2cn(C)c3ccc(OC)cc23)c2cc(F)ccc21', 'CAKI-1 renal', 'false (0)'),
  ('CCCNNC(=O)/C=C/c1ccc(CNCCc2c(C)[nH]c3ccccc23)cc1', 'CAKI-1 renal', 'true (1)'),
  ('Cc1ccc(-c2nc3nc(-c4ccc(Br)cc4)nc(N4CCCNCC4)c3o2)cc1', 'CAKI-1 renal', 'true (1)'),
  ('CCCN1C(=O)/C(=c2\sc3n(c2=O)NC2C(N=3)N(CC)C(=O)N2CC)c2ccccc21 (stereo unspecified)', 'CAKI-1 renal', 'false (0)'),
  ('Cn1ccnc1CN1CCSC(C(=O)Nc2ccccc2)C1 (stereo unspecified)', 'CAKI-1 renal', 'false (0)'),
  ('COc1cc(/C=N/NC(=O)CCN2c3ccccc3Sc3ccccc32)cc(OC)c1OC', 'CAKI-1 renal', 'false (0)'),
  ('NC1=CC(=O)c2cccnc2C1=O', 'CAKI-1 renal', 'true (1)'),
  ('COc1ccccc1/C=C1\COc2ccc(O)cc2C1=O', 'CAKI-1 renal', 'false (0)'),
  ('COc1cc(F)c(/C=C/c2cc(/C=C/c3cc(OC)c(OC)cc3F)n(-c3cc(F)cc(F)c3)n2)cc1OC', 'CAKI-1 renal', 'false (0)'),
  ('COc1cc(/C=C2\CCC/C(=C\c3cc(CN4CCCC4)c(O)c(OC)c3)C2=O)cc(CN2CCCC2)c1O', 'CAKI-1 renal', 'false (0)'),
  ('Cc1cccc(-c2nnc(SCC(=O)Nc3ncc(Cc4ccccc4)s3)n2N2C(=O)CSC2=S)c1', 'CAKI-1 renal', 'false (0)'),
  ('Nc1ccc(-c2ccc(N)c(Br)c2)cc1Br', 'CAKI-1 renal', 'false (0)'),
  ('FC(F)(F)Sc1ccc(/C=C/c2cc(/C=C/c3ccc(SC(F)(F)F)cc3)n(-c3ccccc3)n2)cc1', 'CAKI-1 renal', 'false (0)'),
  ('[2H]C([2H])([2H])Oc1cccc(/C=C/C(=O)/C=C(/C=C/c2cccc(OC([2H])([2H])[2H])c2OC([2H])([2H])[2H])OB(F)F)c1OC([2H])([2H])[2H]', 'CAKI-1 renal', 'false (0)'),
  ('COc1ccc(-c2nc(Cl)c3c(C)nn(-c4ccc(F)cc4)c3n2)cc1', 'CAKI-1 renal', 'false (0)'),
  ('Cc1c(CC(=O)OCCO)cc(-c2ccc(Cl)cc2)n1-c1ccccc1', 'CAKI-1 renal', 'false (0)'),
  ('CONC1=Nc2cc(NC(N)=NCc3ccccc3)c(N(C)C3CCCCC3)cc2OC1', 'CAKI-1 renal', 'false (0)'),
  ('O=C(/C=C/c1ccc([N+](=O)[O-])cc1)c1ccccc1', 'CAKI-1 renal', 'false (0)'),
  ('c1cc(NCCCCN2CCOCC2)c2ccc3c(ccc4c(NCCN5CCOCC5)ccnc43)c2n1', 'CAKI-1 renal', 'false (0)'),
  ('CCOC(=O)CC1CSC(c2cccc(Cl)c2)=N1 (stereo unspecified)', 'CAKI-1 renal', 'false (0)'),
  ('CC1(C)C(N)=Nc2cc(OCCCCN3Cc4ccccc4C3)c(OCC3CC3)cc21', 'CAKI-1 renal', 'false (0)'),
  ('O=C1C(N2CCOCC2)=C(I)C(=O)c2ncccc21', 'CAKI-1 renal', 'false (0)'),
  ('O=C1OCC2=C1C(c1cccc([N+](=O)[O-])c1)c1cc3c(cc1N2CCO)CCC3 (stereo unspecified)', 'CAKI-1 renal', 'false (0)'),
  ('COc1ccc(C(c2cc(OC)c(OC)c(OC)c2)n2ccnc2)cc1O (stereo unspecified)', 'CAKI-1 renal', 'false (0)'),
  ('Cc1ccc2nc3ccccc3c(NCc3ccc(Cl)cc3)c2c1', 'CAKI-1 renal', 'false (0)'),
  ('CCN(c1cc(-c2ccc(CN3CCC(/C=C/S(=O)(=O)c4ccccc4)CC3)cc2)cc(C(=O)NCc2c(C)cc(C)[nH]c2=O)c1C)C1CCOCC1', 'CAKI-1 renal', 'false (0)'),
  ('C=C(CNCCc1ccc(O)cc1)[C@@H]1CC[C@]2(CO)CC[C@]3(C)[C@H](CC[C@@H]4[C@@]5(C)CCC(NCCc6ccc(O)cc6)C(C)(C)[C@@H]5CC[C@]43C)[C@@H]12 (stereo partly specified)', 'CAKI-1 renal', 'true (1)');
